Tested on: MCF-10A
Experiment: Cytotoxicity against human MCF-10A cells assessed as inhibition of cell growth incubated for 24 hrs by Hoechst 33342/propidium iodide staining based fluorescence analysis
Assay type: toxicity
Details: mcf-10a
Listing of entries alongside the reported IC50.

- CC/C(=C(\c1ccccc1)c1ccc(OCCN(C)C)cc1)c1ccccc1: > 1000 µM

Alright, here's another compound for you.
Identify the measured IC50 of O=C(c1cc(Cc2n[nH]c(=O)c3ccccc23)ccc1F)N1CCN(C(=O)C2CC2)CC1 for MCF-10A. > 1000 µM

----------
Consider the following molecules and their measured IC50 readings.
Test system: MCF7
Assay: Antiproliferative activity against human MCF7 cells assessed as inhibition of cell growth incubated for 72 hrs by Hoechst 33342/propidium iodide staining based fluorescence analysis
Format: functional
Settings: MCF7, 72 h

• C=C1C[C@@H](C(=O)O)NC1=O = > 1000 µM
• C=C1C[C@@H](C(=O)OCC)NC1=O = > 1000 µM
• C=C(C[C@H](NC(=O)OC(C)(C)C)C(=O)OCC)C(=O)NCc1ccccc1 = > 1000 µM
• C=C(C[C@H](NC(=O)OC(C)(C)C)C(=O)OC(C)(C)C)C(=O)Nc1ccc(Cl)cc1 = > 1000 µM
• C=C(C[C@H](NC(=O)OC(C)(C)C)C(=O)OC(C)(C)C)C(N)=O = < 1000 µM
• O=C(c1cc(Cc2n[nH]c(=O)c3ccccc23)ccc1F)N1CCN(C(=O)C2CC2)CC1 [OLAPARIB] = < 1000 µM

Kindly review the next molecule as well.
Quick check: IC50 of C=C(C[C@H](NC(=O)OC(C)(C)C)C(=O)OCC)C(=O)NCc1ccc(F)cc1 ? > 1000 µM
